Activity by entry:
# System: Rattus norvegicus
# protocol_notes: Toxicity in po dosed Sprague-Dawley rat assessed as maximum tolerated dose relative to Val-boroPro
# Format: organism-based
# condition_notes: in vivo

>>> recorded_measurement("CC(C)[C@H](N)C(=O)N1CCC[C@H]1B(O)O")
1

Exam item: Query for Rattus norvegicus: what Activity does the record show for "CC[C@@H](C)[C@H](N)C(=O)N1CCSC1" ?
Marked response: < 12000

Exam item: Query for Rattus norvegicus: what Activity does the record show for "C[C@H](NC(=O)[C@@H](N)CCC(=O)O)B(O)O" ?
Marked response: 20000

Exam item: Query for Rattus norvegicus: what Activity does the record show for "C[C@H](N)C(=O)N1CCC[C@H]1B(O)O" ?
Marked response: 200

Exam item: Query for Rattus norvegicus: what Activity does the record show for "CC[C@H](C)[C@H](N)C(=O)N1CCSC1" ?
Marked response: > 28000

Source of measurements: ChEMBL document CHEMBL1140098
